- System: RXF 393 renal
- experiment description: NCI tumour cell line growth inhibition, 48 h
value type: GI50

compound: Cn1cc(-c2nn3cc(-c4cccs4)nc3s2)c2cc(F)ccc21
GI50: 1590 nM

Exercise: Give the observed GI50 of Cc1ccc(OCCCCCCNCCO)c(C)c1 for RXF 393 renal.
Key: 6530 nM

Exercise: Give the observed GI50 of COc1ccc(S(=O)(=O)NCCNc2nccc(-c3c(-c4ccccc4)nc4sccn34)n2)cc1 for RXF 393 renal.
Key: 5710 nM

Exercise: Give the observed GI50 of COc1ccc(N=C2NN=C(c3c[nH]c4ccccc34)CS2)cc1OC for RXF 393 renal.
Key: 6190 nM

Exercise: Give the observed GI50 of CC(C)(C)c1ccc(S(=O)(=O)N[C@H]2CC[C@H]3[C@@H]4CCc5cc(O)ccc5[C@H]4CC[C@]23C)cc1 for RXF 393 renal.
Key: 1610 nM

Exercise: Give the observed GI50 of COc1cc(C(=O)N/N=C/c2cccc([N+](=O)[O-])c2)cc(OC)c1OC for RXF 393 renal.
Key: 6900 nM

Exercise: Give the observed GI50 of CC(=O)N[C@@H]1CCC[C@H](C(=O)Nc2cc(-c3cnn4c3CC(C)(C)C4)c(Cl)cn2)C1 for RXF 393 renal.
Key: < 10 nM

Exercise: Give the observed GI50 of CC(=O)Nc1ccc(-n2cnc3cc(-c4ccc(OCCN5CCCCC5)cc4)ccc32)cc1 for RXF 393 renal.
Key: 3040 nM

Exercise: Give the observed GI50 of CCSc1nc(N)c2cnn(C)c2n1 for RXF 393 renal.
Key: 36200 nM

Exercise: Give the observed GI50 of CCC1(N2C(=O)c3c(F)c(F)c(F)c(F)c3C2=O)C(=O)NC(=O)N(c2ccccc2)C1=O (centres undefined) for RXF 393 renal.
Key: 2750 nM

Exercise: Give the observed GI50 of Cn1c(COC(=O)NCCN2CCOCC2)nc2c(N3CCOCC3)nc(-c3ccccc3)nc21 for RXF 393 renal.
Key: 797 nM

Exercise: Give the observed GI50 of CCOC(=O)C1=C(c2ccccc2)N(Cc2ccccc2)C2(O)C=CC(=O)C3C(=O)N(c4ccccc4)C(=O)C132 (centres undefined) for RXF 393 renal.
Key: 1910 nM

Exercise: Give the observed GI50 of COC(=O)C1=C(O)C(C(=O)OC)[C@@]2(O)[C@@H](C(=O)OC)C(c3ccc(OC(=O)C(CC(C)C)NC(C)=O)cc3)C[C@@H]1[C@@H]2C(=O)OC (some centres undefined) for RXF 393 renal.
Key: > 100000 nM

Exercise: Give the observed GI50 of CC1(C)CC2(C)OC2C2(C1)N=NC(=Nc1ccccc1)O2 (centres undefined) for RXF 393 renal.
Key: 2190 nM

###

- Tested on: SN12C renal
- experiment description: NCI tumour cell line growth inhibition, 48 h
# TGI per record follows

Some solved cases for reference:
compound: O=C1CC2Sc3ccccc3N=C2N1c1ccc(Cl)cc1Cl (configuration not stated)
value type: TGI
result: > 100 µM
--
compound: CCC1NCC(=O)c2c1[nH]c1ccccc21 (configuration not stated)
value type: TGI
result: > 100 µM
--
compound: C=C(CCC(C(=O)O)C1CCC2(C)C3=C(CCC12C)C1(C)CCC(O)C(C)(C)C1CC3)C(C)C (configuration not stated)
value type: TGI
result: > 100 µM
--
compound: COc1ncnc2c(-c3ccco3)cn(COCc3ccccc3)c12
value type: TGI
result: > 50 µM
--
compound: CCOc1cc(C=O)ccc1O
value type: TGI
result: > 100 µM
--
compound: O=C(O)CNC(=O)c1cccc2c(=O)c3ccccc3[nH]c12
value type: TGI
result: > 100 µM
--
compound: CCc1nc(N)nc(N)c1-c1ccc([N+](=O)[O-])c(Cl)c1
value type: TGI
result: > 100 µM
--
compound: COc1ccc(-n2nc(C)c3c2N(C)C2(C)C[C@@H]4C3(C)[C@@H]3CC4(C2)N(C)c2c(c(C)nn2-c2ccc(OC)cc2)[C@H]3C)cc1 (some centres not stated)
value type: TGI
result: > 100 µM
--
compound: COC(=O)C1=C(O)C(C(=O)OC)[C@@]2(O)[C@@H](C(=O)OC)C(c3ccc(OC(=O)C(CC(C)C)NC(C)=O)cc3)C[C@@H]1[C@@H]2C(=O)OC (some centres not stated)
value type: TGI
result: > 100 µM
--
compound: CC(C)C[C@H](NC(=O)[C@@H](O)[C@H](N)Cc1ccccc1)C(=O)O
value type: TGI
result: > 100 µM

Exercise: Identify the reported TGI for the following entry. COC(=O)C1(Cc2ccccc2)Cc2ccccc2C1=O (configuration not stated)
Key: > 100 µM

Exercise: Identify the reported TGI for the following entry. CC[C@@]1(O)C(=O)OCc2c1cc1n(c2=O)Cc2cc3c(NC(C)=O)c(O)ccc3nc2-1
Key: > 20.8 µM

Exercise: Identify the reported TGI for the following entry. COC(=O)CNC(=O)/C=C/[C@H](O[Si](C)(C)C(C)(C)C)[C@H](/C=C/C(=O)NCC(=O)OC)O[Si](C)(C)C(C)(C)C
Key: > 25 µM
